TEST SYSTEM: recombinant homotrimeric HA A/swine/Ontario/01911-2/99 H4N6 (Influenza A virus A/Swine/Ontario/01911-2/99 (H4N6))
ASSAY PROCEDURE: protein microarray, purified IgG, trimeric HA
CONDITIONS USED: remark: other sources report otherwise
Measured Trimeric HA Binding: RLU, listed per entry for reference.
MEASUREMENT NAME: Trimeric HA Binding: RLU

BINDER: TCN-531 (5091_H13) (antibody, V domains shown) VH: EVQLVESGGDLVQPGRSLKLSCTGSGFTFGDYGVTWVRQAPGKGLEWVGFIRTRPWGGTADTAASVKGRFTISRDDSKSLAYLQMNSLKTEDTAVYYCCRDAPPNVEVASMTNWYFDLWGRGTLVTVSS VL: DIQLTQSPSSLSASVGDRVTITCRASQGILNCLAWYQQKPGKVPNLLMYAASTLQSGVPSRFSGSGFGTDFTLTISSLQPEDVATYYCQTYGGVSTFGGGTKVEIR
RESULT: 84 RLU

BINDER: TCN-540 (5060_F05) (antibody, V domains shown) VH: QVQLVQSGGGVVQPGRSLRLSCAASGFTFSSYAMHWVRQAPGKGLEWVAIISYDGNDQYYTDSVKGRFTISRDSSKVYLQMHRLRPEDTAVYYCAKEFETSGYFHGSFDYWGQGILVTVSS VL: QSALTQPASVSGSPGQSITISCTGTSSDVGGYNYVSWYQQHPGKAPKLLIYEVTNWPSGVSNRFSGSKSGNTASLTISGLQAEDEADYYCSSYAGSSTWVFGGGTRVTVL
RESULT: 138 RLU

BINDER: TCN-544 (5082_A19) (antibody, V domains shown) VH: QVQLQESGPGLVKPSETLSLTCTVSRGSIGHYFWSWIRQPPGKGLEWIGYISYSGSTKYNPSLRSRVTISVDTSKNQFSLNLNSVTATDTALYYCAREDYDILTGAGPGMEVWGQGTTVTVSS VL: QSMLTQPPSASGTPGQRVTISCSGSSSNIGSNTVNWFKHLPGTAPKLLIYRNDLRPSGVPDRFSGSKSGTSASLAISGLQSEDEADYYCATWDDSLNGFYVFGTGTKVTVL
RESULT: 154 RLU

BINDER: TCN-530 (5248_H10a) (antibody, V domains shown) VH: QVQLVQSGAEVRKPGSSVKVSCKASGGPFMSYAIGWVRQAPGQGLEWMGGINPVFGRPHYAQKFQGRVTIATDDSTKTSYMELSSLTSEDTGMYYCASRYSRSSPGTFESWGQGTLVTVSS VL: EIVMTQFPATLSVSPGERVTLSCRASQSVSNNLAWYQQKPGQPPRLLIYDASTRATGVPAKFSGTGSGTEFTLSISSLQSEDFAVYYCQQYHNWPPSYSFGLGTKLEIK
RESULT: 139 RLU

BINDER: TCN-543 (5081_G23) (antibody, V domains shown) VH: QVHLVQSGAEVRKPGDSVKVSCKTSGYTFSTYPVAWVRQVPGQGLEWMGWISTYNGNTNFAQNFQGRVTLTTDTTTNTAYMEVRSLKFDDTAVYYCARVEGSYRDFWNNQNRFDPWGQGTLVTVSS VL: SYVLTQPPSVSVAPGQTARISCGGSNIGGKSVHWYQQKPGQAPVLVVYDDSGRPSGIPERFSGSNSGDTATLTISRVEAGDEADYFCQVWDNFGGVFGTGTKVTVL
RESULT: 169 RLU

BINDER: TCN-532 (5262_H18) (antibody, V domains shown) VH: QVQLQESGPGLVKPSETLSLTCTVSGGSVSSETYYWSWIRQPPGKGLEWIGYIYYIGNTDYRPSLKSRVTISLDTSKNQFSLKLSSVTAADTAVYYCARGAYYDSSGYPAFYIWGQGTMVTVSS VL: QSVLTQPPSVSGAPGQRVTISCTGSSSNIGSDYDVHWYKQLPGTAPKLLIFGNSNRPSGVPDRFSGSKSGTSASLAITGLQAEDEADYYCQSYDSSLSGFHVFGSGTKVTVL
RESULT: 122 RLU

BINDER: TCN-522 (3212_I12) (antibody, V domains shown) VH: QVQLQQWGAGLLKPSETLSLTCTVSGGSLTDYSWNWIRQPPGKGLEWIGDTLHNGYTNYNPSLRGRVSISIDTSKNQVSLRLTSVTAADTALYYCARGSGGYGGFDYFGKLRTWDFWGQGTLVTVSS VL: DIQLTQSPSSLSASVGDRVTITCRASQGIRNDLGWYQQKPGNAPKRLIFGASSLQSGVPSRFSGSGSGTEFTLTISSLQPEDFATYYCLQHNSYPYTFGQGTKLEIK
RESULT: 73 RLU

BINDER: TCN-557 (5081_A04) (antibody, V domains shown) VH: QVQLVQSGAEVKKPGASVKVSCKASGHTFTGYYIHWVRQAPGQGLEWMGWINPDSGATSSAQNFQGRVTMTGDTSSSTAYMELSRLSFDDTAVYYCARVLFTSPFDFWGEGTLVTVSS VL: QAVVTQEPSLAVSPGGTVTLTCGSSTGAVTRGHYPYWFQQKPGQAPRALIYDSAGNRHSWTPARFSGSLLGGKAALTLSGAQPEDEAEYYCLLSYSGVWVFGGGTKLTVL
RESULT: 19200 RLU

BINDER: TCN-527 (5086_C06) (antibody, V domains shown) VH: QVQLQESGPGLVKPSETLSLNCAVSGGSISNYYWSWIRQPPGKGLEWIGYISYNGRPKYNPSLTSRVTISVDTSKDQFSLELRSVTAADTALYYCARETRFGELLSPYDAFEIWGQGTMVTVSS VL: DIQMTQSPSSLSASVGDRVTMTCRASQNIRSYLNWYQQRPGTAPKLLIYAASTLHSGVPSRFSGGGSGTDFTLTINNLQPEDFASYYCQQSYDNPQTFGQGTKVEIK
RESULT: 11100 RLU

BINDER: TCN-528 (5087_P17) (antibody, V domains shown) VH: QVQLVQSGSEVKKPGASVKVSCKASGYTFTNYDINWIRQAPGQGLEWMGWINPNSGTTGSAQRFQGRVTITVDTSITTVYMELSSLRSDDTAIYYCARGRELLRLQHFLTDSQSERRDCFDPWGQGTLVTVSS VL: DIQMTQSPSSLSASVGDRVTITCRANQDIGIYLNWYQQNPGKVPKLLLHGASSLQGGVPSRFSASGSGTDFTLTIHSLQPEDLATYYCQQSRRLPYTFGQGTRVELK
RESULT: 9490 RLU

BINDER: TCN-536 (5095_N01) (antibody, V domains shown) VH: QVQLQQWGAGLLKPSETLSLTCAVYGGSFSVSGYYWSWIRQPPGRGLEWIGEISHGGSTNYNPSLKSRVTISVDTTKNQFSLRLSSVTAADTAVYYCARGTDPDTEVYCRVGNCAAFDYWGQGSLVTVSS VL: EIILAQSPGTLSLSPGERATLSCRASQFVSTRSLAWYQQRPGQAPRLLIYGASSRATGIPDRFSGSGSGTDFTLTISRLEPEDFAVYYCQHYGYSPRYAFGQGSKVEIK
RESULT: 126 RLU
